For each record, write down the corresponding IC50.
experiment: microbe, parasite or virus in culture; conditions: Mycobacterium tuberculosis, 72 h, read-out: pIC50 (converted)
Hi! Could you send only the number? It should be in µM, unit omitted.

Request: Item under review: `COCCCOc1ccc2c(c1)OCCO2` . Reported IC50?
Response: 92.8

Request: Item under review: `COc1cccc(CN(C)C(=O)c2occc2C)n1` . Reported IC50?
Response: 188

Request: Item under review: `O=C(NCCOCc1ccccc1)c1ccco1` . Reported IC50?
Response: 249

Request: Item under review: Cn1nccc1C(=O)N1CCC(Oc2ccccc2)C1 (configuration not stated) . Reported IC50?
Response: 232

Request: Item under review: CC(C)CC1CCN(C(=O)CCn2cnnn2)C1 (configuration not stated) . Reported IC50?
Response: 28.3

Request: Item under review: `Cc1[nH]c2ccc(C(N)=O)cc2c1C` . Reported IC50?
Response: 20.8

Request: Item under review: `CC(C)CCNC(=O)CCn1cc(Br)ccc1=O` . Reported IC50?
Response: 142

Request: Item under review: `NC1(c2nc(C3CC3)cc(=O)[nH]2)CCCC1` . Reported IC50?
Response: 304

Request: Item under review: `O=C(NCC(=O)N1CCCC1)c1csc2ccccc12` . Reported IC50?
Response: 43.9

Request: Item under review: `CN1CCN(S(=O)(=O)N2CCCC2)Cc2ccccc21` . Reported IC50?
Response: 155

Request: Item under review: `CCc1nc(CCN)cs1` . Reported IC50?
Response: 113

Request: Item under review: `CN(CC(=O)N1CCOCC1)Cc1cc(Br)cs1` . Reported IC50?
Response: 114

====

For each record, write down the corresponding IC50.
test: microbe, parasite or virus in culture; conditions: Mycobacterium tuberculosis, 72 h, read-out: pIC50 (converted)

Request: Item under review: `CCOc1ccc(OCc2nccc(-c3cc(C(=O)O)ccn3)n2)cc1` . Reported IC50?
Response: > 50.1 µM

Request: Item under review: CNCC(=O)NC(C)c1nc(-c2ccc(Br)cc2)no1 (stereo unspecified) . Reported IC50?
Response: 197 µM

Request: Item under review: `C=Cc1ccc(CN2C(=O)C3(CCNCC3)Nc3ccccc32)cc1` . Reported IC50?
Response: 28.2 µM

Request: Item under review: `O=C(NCc1ccc2c(c1)OCCCO2)c1cscn1` . Reported IC50?
Response: 107 µM

Request: Item under review: `Cc1ccc(Oc2c(F)cccc2OC[C@@H](N)CC(C)C)cc1` . Reported IC50?
Response: 23.4 µM

Request: Item under review: `O=C(NCC1CC1)c1noc(-c2ccccc2F)n1` . Reported IC50?
Response: 16.4 µM

Request: Item under review: `CN1CCCN(C(=O)c2ccco2)c2ccccc21` . Reported IC50?
Response: 119 µM

Request: Item under review: `CC(C)(N)CN1CCCN(c2ccc(F)cc2)CC1` . Reported IC50?
Response: 203 µM

Request: Item under review: `FC(F)(F)Sc1ccc(NCc2nnc(C3CC3)o2)cc1` . Reported IC50?
Response: 36.4 µM

Request: Item under review: NCC(CO)Cc1cc(F)cc(Br)c1 (stereo unspecified) . Reported IC50?
Response: 305 µM

Request: Item under review: `COCCNC(=O)COc1ccc2c(c1)OCO2` . Reported IC50?
Response: 128 µM

Request: Item under review: CCOC(=O)C1CCCN(C(=O)c2onc(C)c2Cl)C1 (stereo unspecified) . Reported IC50?
Response: 232 µM

Request: Item under review: `COc1ccc(S(=O)(=O)N(C)C)cc1NCC1CC1` . Reported IC50?
Response: 299 µM

Request: Item under review: `Cc1csc(N2CCCN(C(=O)c3cnsn3)CC2)n1` . Reported IC50?
Response: 284 µM

Request: Item under review: `Cc1nnc(SCCC(=O)N(C)Cc2ccc(F)cc2F)[nH]1` . Reported IC50?
Response: > 50.1 µM

Request: Item under review: CC(Cn1cccn1)NCc1csc(-c2ccccc2F)n1 (stereo unspecified) . Reported IC50?
Response: 10.4 µM

Request: Item under review: CC(N)Cc1ccccc1Sc1ccc(O)cc1 (stereo unspecified) . Reported IC50?
Response: > 50.1 µM

Request: Item under review: `CS(=O)(=O)Nc1cccc(C(=O)Nc2ccccc2)c1` . Reported IC50?
Response: 130 µM

Request: Item under review: `O=C(CNc1cccc(CO)c1)NCc1ccc(Cl)s1` . Reported IC50?
Response: 134 µM

Request: Item under review: CCC(O)CN1CCN(c2ncccc2Br)CC1 (stereo unspecified) . Reported IC50?
Response: > 501 µM

Request: Item under review: `CCN(CCS(=O)(=O)c1ccccc1)CC(=O)N(C)C` . Reported IC50?
Response: 130 µM

Request: Item under review: O=c1oc(-c2ccc(F)cc2)nn1CC1CCOC1 (stereo unspecified) . Reported IC50?
Response: 34.3 µM

Request: Item under review: `C=C(C)CCOC(=O)c1cc(C(N)=O)cs1` . Reported IC50?
Response: 39.4 µM

Request: Item under review: `O=C(Nc1cc(F)cc(F)c1)c1ccncc1` . Reported IC50?
Response: 224 µM

Request: Item under review: `Cc1nc[nH]c1CN1CCCC12CCN(c1nc3ccccc3s1)CC2` . Reported IC50?
Response: 46 µM

Request: Item under review: COc1cccc(C(C)Nc2ncnc3c2NC(=O)CN3)c1 (stereo unspecified) . Reported IC50?
Response: > 50.1 µM

Request: Item under review: `COc1ccc(C(=O)CCN(C)C)cc1OC` . Reported IC50?
Response: 276 µM

Request: Item under review: CCc1nc(C2CCCN(C(=O)c3ccccc3Cl)C2)no1 (stereo unspecified) . Reported IC50?
Response: 23.9 µM

Request: Item under review: CSc1nccc(N2CCC3(CCCN(Cc4ccc(F)cc4)C3)C2)n1 (stereo unspecified) . Reported IC50?
Response: 27.2 µM

Request: Item under review: `CC(C)OCCn1nnnc1Cc1ccc(Br)cc1` . Reported IC50?
Response: 35.5 µM

Request: Item under review: OCCCNC(c1ccccc1)c1ccccn1 (stereo unspecified) . Reported IC50?
Response: > 501 µM

Request: Item under review: `COC(=O)CSCc1nc(-c2ccc(Cl)cc2)no1` . Reported IC50?
Response: > 50.1 µM

Request: Item under review: `Cc1c(C(=O)Nc2ccc3c(c2)OCCO3)cnn1C` . Reported IC50?
Response: > 501 µM

Request: Item under review: CC(C)c1ccc(C(N)CNS(C)(=O)=O)cc1 (stereo unspecified) . Reported IC50?
Response: 202 µM

Request: Item under review: `CCNC(=O)NC(=O)CN(C)Cc1ccccc1` . Reported IC50?
Response: 171 µM

Request: Item under review: `CC(C)NC(=O)CSc1nc(C=Cc2cccs2)n[nH]1` . Reported IC50?
Response: 122 µM

Request: Item under review: CCOC(=O)C(C)Nc1ccc2oc(=O)[nH]c2c1 (stereo unspecified) . Reported IC50?
Response: 311 µM

Request: Item under review: `CC(C)NS(=O)(=O)c1cc(CN)ccc1F` . Reported IC50?
Response: > 501 µM

Request: Item under review: CCN(CC)c1nc(Nc2cccc(C(C)O)c2)nc2ccccc12 (stereo unspecified) . Reported IC50?
Response: 25.7 µM

Request: Item under review: CCc1nnc2n1CCN(C(C(=O)NC1CC1)c1ccccc1)C2 (stereo unspecified) . Reported IC50?
Response: > 50.1 µM

Request: Item under review: `O=C(NC1CC1)c1nc2c(s1)CCCN2c1ccccc1` . Reported IC50?
Response: > 50.1 µM

Request: Item under review: `CN(Cc1cccn1C)C(=O)c1ccccc1F` . Reported IC50?
Response: 219 µM

Request: Item under review: CCOC(=O)C(C)Nc1ccc2c(c1)CCCC(=O)N2 (stereo unspecified) . Reported IC50?
Response: > 501 µM

Request: Item under review: `CNS(=O)(=O)c1ccc(C(=O)NCc2ccccc2)o1` . Reported IC50?
Response: 151 µM

Request: Item under review: `Cc1ccc2oc(N3CCNCC3)nc2c1` . Reported IC50?
Response: 190 µM

Request: Item under review: Cc1nc(C2CCCN(C(=O)c3cc4c(s3)CCCC4)C2)no1 (stereo unspecified) . Reported IC50?
Response: 40.8 µM

Numbers sourced from ChEMBL document CHEMBL3988442.
